Kindly supply the reported CC50 at 48 h values for the records listed here.
# procedureSummary: Cytotoxicity against human A549 cells assessed as reduction in cell viability incubated for 48 hrs by alamarBlue assay
# Assay type: cell-based
Answers are plain numbers, in µM.

compound	readoutType	unitTag	value
O=C(Cc1ccccc1)N1CCN(C(=S)Nc2cc(C(F)(F)F)cc(C(F)(F)F)c2)C(c2ccccc2)C1 (stereo not given)	CC50 at 48 h	µM	104
O=C(Cc1ccccc1)N1CCN(C(=O)Nc2cc(C(F)(F)F)ccc2Cl)C(c2ccccc2)C1 (stereo not given)	CC50 at 48 h	µM	64.5
CC1CN(C(=O)Cc2ccccc2)CCN1C(=S)Nc1ccc(Cl)cc1 (stereo not given)	CC50 at 48 h	µM	175
CC(C)(C)CC(=O)N1CCN(C(=S)Nc2cc(C(F)(F)F)cc(C(F)(F)F)c2)C(c2ccccc2)C1 (stereo not given)	CC50 at 48 h	µM	91.8

Now examine the next entry.
Q. Identify the reported CC50 at 48 h for the following entry. CC1CN(C(=O)c2cc3ccccc3o2)CCN1C(=S)Nc1ccc([N+](=O)[O-])cc1 (stereo not given)
A. 20

====

# procedureSummary: Cytotoxicity against human A549 cells assessed as reduction in cell viability incubated for 48 hrs by alamarBlue assay
# Type: cell-based
# label = rule met if CC50 at 48 h < 100 µM else rule not met

Solved entries:
molecule	category
Cc1ccc(NC(=S)N2CCN(C(=O)CC3CCCCC3)CC2C)cc1 (stereo unspecified)	rule not met
CC(C)(C)OC(=O)N1CCN(C(=O)Nc2cc(C(F)(F)F)ccc2Cl)CC1	rule not met
CC1CN(C(=O)Cc2ccccc2)CCN1C(=S)Nc1ccc(F)cc1 (stereo unspecified)	rule met
CC1CN(C(=O)c2cc3ccccc3o2)CCN1C(=S)Nc1ccc(C(F)(F)F)cc1 (stereo unspecified)	rule met
CC1CN(C(=O)OC(C)(C)C)CCN1C(=S)Nc1ccc(F)cc1 (stereo unspecified)	rule not met
CC1CN(C(=O)Cc2ccccc2)CCN1C(=S)Nc1ccc([N+](=O)[O-])cc1 (stereo unspecified)	rule not met

Q. I'd appreciate it if you could check whether Nc1ccn(C[C@@H](CO)OCP(=O)(O)O)c(=O)n1.O.O [CIDOFOVIR] has CC50 at 48 h smaller than 100 µM.
A. rule met

Q. I'd appreciate it if you could check whether CC1CN(C(=O)OC(C)(C)C)CCN1C(=S)Nc1ccc(C#N)cc1 (stereo unspecified) has CC50 at 48 h smaller than 100 µM.
A. rule not met

Q. I'd appreciate it if you could check whether CC1CN(C(=O)c2cc3ccccc3o2)CC(C)N1C(=O)Nc1ccc(Cl)cc1 (stereo unspecified) has CC50 at 48 h smaller than 100 µM.
A. rule not met

Q. I'd appreciate it if you could check whether CC1CN(C(=O)Cc2ccccc2)CCN1C(=S)Nc1ccc(C#N)cc1 (stereo unspecified) has CC50 at 48 h smaller than 100 µM.
A. rule not met

Q. I'd appreciate it if you could check whether CC1CN(C(=O)CC2CCCCC2)CCN1C(=S)Nc1ccc(Cl)cc1 (stereo unspecified) has CC50 at 48 h smaller than 100 µM.
A. rule not met

Q. I'd appreciate it if you could check whether CC1CN(C(=O)c2cc3ccccc3o2)CCN1C(=S)Nc1ccc(F)cc1 (stereo unspecified) has CC50 at 48 h smaller than 100 µM.
A. rule met

Q. I'd appreciate it if you could check whether CC(C)(C)OC(=O)N1CCN(C(=O)Nc2ccc([N+](=O)[O-])cc2)CC1 has CC50 at 48 h smaller than 100 µM.
A. rule not met

Q. I'd appreciate it if you could check whether CC1CN(C(=O)CC2CCCCC2)CCN1C(=S)Nc1ccc(C#N)cc1 (stereo unspecified) has CC50 at 48 h smaller than 100 µM.
A. rule not met
